- Test Method Notes: probe aNOTCH3 binding on compound microarray – biochemical, small-molecule microarray, 635/667 nm fluorescence, primary screen (AID 1120);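 further: probe is a biotin-tagged antibody raised against NOTCH3 rather than NOTCH3 protein; score merges spot fluorescence near 667 nm with spot signal to noise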
- Run Parameters: higher = more signal
Use TRUE when the recorded composite z-score is no lower than 0.05; use FALSE when it is lower.

Before answering, review these 4 worked examples.
Compound: CCOC(=O)C[C@H]1[C@H](OC(=O)c2ccccc2-c2ccccc2)[C@@H](NC(=O)c2ccc(-c3ccccc3)cc2)c2cc(OCCCO)ccc2N1C(=O)c1ccccc1
Class Assignment: FALSE

Compound: COc1ccc(C(O)C2C=CC3C(=O)N(c4ccccc4)C(=O)C3N2Nc2ccccc2)c2ccccc12 (stereo unspecified)
Class Assignment: TRUE

Compound: CCN(CC)c1ccc(N2CC=CC34O[C@@H]5/C=C\CCC(C)OC(=O)C5[C@H]3C(=O)N(CCCCCCO)[C@@H]4C2=O)cc1 (stereo partly specified)
Class Assignment: FALSE

Compound: COC(=O)[C@@]1(Cc2ccc(OC)cc2)[C@H]2c3cc(C(=O)N4CCCC4)n(C[C@H](O)CO)c3C[C@H]2CN1C(=O)c1ccccc1
Class Assignment: TRUE

Turning to the following compound.
Does COc1ccc(C(=O)Nc2cccc(CN3C(=O)[C@@]4(O[C@@H](CCn5cc([C@H](O)c6ccccc6)nn5)[C@H]([Si](C)(C)c5ccc(OC)cc5)[C@H]4C)c4ccccc43)c2)cc1 have a reported composite z-score of at least 0.05?
TRUE
